Origin of measurements: the RNAGym collection of RNA variant scans (doi:10.1126/science.aae0568)

Measured yeast fitness of individual entries
B1: tRNA (parent)
chain: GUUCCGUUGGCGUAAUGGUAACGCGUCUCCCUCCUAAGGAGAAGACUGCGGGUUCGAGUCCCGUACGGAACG

Variants of: B1
ASSAY INFO: yeast fitness relative to wild type (ratio to wild type); higher = fitter; tRNA-Arg(CCU), competitive growth, 37 C, YPD
Fewer inactive variants are shown than the library holds.
RECORDED ENDPOINT: yeast fitness

>  <MUTATION CODE>
U13A A21C A42G

>  <RELATION>
=

>  <READING>
0.502

$$$$
>  <MUTATION CODE>
A14G A21U U47G C49G G56C

>  <RELATION>
≤

>  <READING>
0.5

$$$$
>  <MUTATION CODE>
C11G C34U A42C C66A

>  <RELATION>
≤

>  <READING>
0.5

$$$$
>  <MUTATION CODE>
U16C C49A

>  <RELATION>
=

>  <READING>
0.731

$$$$
>  <MUTATION CODE>
U53C A69C

>  <RELATION>
=

>  <READING>
0.881

$$$$
>  <MUTATION CODE>
G39A G63A

>  <RELATION>
=

>  <READING>
0.945

$$$$
>  <MUTATION CODE>
A15U G25A C33G C62G

>  <RELATION>
≤

>  <READING>
0.5

$$$$
>  <MUTATION CODE>
G10A A20G U35G A37G

>  <RELATION>
≤

>  <READING>
0.5

$$$$
>  <MUTATION CODE>
G6C A42C A43U

>  <RELATION>
≤

>  <READING>
0.5

$$$$
>  <MUTATION CODE>
C5U A21G A42C

>  <RELATION>
=

>  <READING>
0.761

$$$$
>  <MUTATION CODE>
C66G G67C

>  <RELATION>
=

>  <READING>
0.733

$$$$
>  <MUTATION CODE>
U7C A14G A43G A69C

>  <RELATION>
≤

>  <READING>
0.5

$$$$
>  <MUTATION CODE>
C4A C27G G52A

>  <RELATION>
=

>  <READING>
0.713

$$$$
>  <MUTATION CODE>
C49A A70C

>  <RELATION>
=

>  <READING>
0.743

$$$$
>  <MUTATION CODE>
G17A C33A

>  <RELATION>
=

>  <READING>
0.53

$$$$
>  <MUTATION CODE>
G6C U7C G9C A65G

>  <RELATION>
≤

>  <READING>
0.5

$$$$
>  <MUTATION CODE>
C4G A15C C30A A42C G56A A57U

>  <RELATION>
≤

>  <READING>
0.5

$$$$
>  <MUTATION CODE>
A20C C49U U59C

>  <RELATION>
=

>  <READING>
0.588

$$$$
>  <MUTATION CODE>
C5U U26A

>  <RELATION>
=

>  <READING>
0.915

$$$$
>  <MUTATION CODE>
C27G C29A C61U

>  <RELATION>
≤

>  <READING>
0.5

$$$$
>  <MUTATION CODE>
G9A C11U C31U

>  <RELATION>
=

>  <READING>
0.704

$$$$
>  <MUTATION CODE>
A15U A21U

>  <RELATION>
=

>  <READING>
0.708

$$$$
>  <MUTATION CODE>
C5G U7G G23C C31U C49U

>  <RELATION>
≤

>  <READING>
0.5

$$$$
>  <MUTATION CODE>
G10A C33U G44C A45G G58A

>  <RELATION>
≤

>  <READING>
0.5

$$$$
>  <MUTATION CODE>
C24G A70G

>  <RELATION>
=

>  <READING>
0.564

$$$$
>  <MUTATION CODE>
C5G G48C C49U U54G A65G C66A

>  <RELATION>
≤

>  <READING>
0.5

$$$$
>  <MUTATION CODE>
G25A G41A

>  <RELATION>
=

>  <READING>
0.822

$$$$
>  <MUTATION CODE>
C27G C29G C30U

>  <RELATION>
≤

>  <READING>
0.5

$$$$
>  <MUTATION CODE>
U35A A40U

>  <RELATION>
=

>  <READING>
0.718

$$$$
>  <MUTATION CODE>
C5U A14C C34G A37U A40U C66U

>  <RELATION>
≤

>  <READING>
0.5

$$$$
>  <MUTATION CODE>
C60A U64A

>  <RELATION>
=

>  <READING>
0.561

$$$$
>  <MUTATION CODE>
U26G G63C C66U

>  <RELATION>
≤

>  <READING>
0.5

$$$$
>  <MUTATION CODE>
C5U G23A A69U

>  <RELATION>
≤

>  <READING>
0.5

$$$$
>  <MUTATION CODE>
U3A U26G

>  <RELATION>
=

>  <READING>
0.781

$$$$
>  <MUTATION CODE>
C5U C24A U32C

>  <RELATION>
=

>  <READING>
0.565

$$$$
>  <MUTATION CODE>
U3A A36C G51C

>  <RELATION>
=

>  <READING>
0.534

$$$$
>  <MUTATION CODE>
A14U A15C A40G U47C G56C G67C

>  <RELATION>
≤

>  <READING>
0.5

$$$$
>  <MUTATION CODE>
G9A A21U A36G A40C A69U

>  <RELATION>
≤

>  <READING>
0.5

$$$$
>  <MUTATION CODE>
U7G G12C G23C C29G A57U C60A G68C

>  <RELATION>
≤

>  <READING>
0.5

$$$$
>  <MUTATION CODE>
A15C A36U

>  <RELATION>
=

>  <READING>
0.633

$$$$
>  <MUTATION CODE>
U26A C46U G50C U54A

>  <RELATION>
=

>  <READING>
0.579

$$$$
>  <MUTATION CODE>
U2C G23C U28C A43U C60A

>  <RELATION>
≤

>  <READING>
0.5

$$$$
>  <MUTATION CODE>
U16A A21G C22U G48C G63C

>  <RELATION>
≤

>  <READING>
0.5

$$$$
>  <MUTATION CODE>
U26C A42G

>  <RELATION>
=

>  <READING>
1.08

$$$$
>  <MUTATION CODE>
G48C G63A A65G

>  <RELATION>
=

>  <READING>
0.71

$$$$
>  <MUTATION CODE>
A40C U47A A69G

>  <RELATION>
=

>  <READING>
0.54

$$$$
